target: Adenosine kinase (Mycobacterium tuberculosis (strain CDC 1551 / Oshkosh)) (UniProt P9WID4); assay: Activity of Mycobacterium tuberculosis ADK assessed as compound conversion to 5'-phosphate form incubated at 37 degC for 20 mins by HPLC method
Sequence (P9WID4 2-324 limits assumed): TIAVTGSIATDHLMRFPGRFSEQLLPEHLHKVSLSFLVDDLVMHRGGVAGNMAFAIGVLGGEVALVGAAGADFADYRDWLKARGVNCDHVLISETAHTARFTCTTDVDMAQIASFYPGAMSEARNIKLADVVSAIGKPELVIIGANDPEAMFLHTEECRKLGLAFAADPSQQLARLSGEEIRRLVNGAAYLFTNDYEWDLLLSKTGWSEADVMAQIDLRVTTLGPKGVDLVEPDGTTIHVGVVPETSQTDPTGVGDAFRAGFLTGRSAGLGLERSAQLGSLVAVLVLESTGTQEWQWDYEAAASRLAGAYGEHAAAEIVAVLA
Activity calls are given as the source filed them. No cut-off for these calls is given here.
QUANTITY_MEASURED: Activity

Here is how some compounds turned out for Activity.
{"columns": ["CHEMICAL_STRUCTURE", "SYSTEM", "QUANTITY_MEASURED", "MEASURED"],
 "data": [
  ["OC[C@H]1O[C@@H](n2ccc3c(-c4ccccc4)ncnc32)[C@H](O)[C@@H]1O", "Adenosine kinase (Mycobacterium tuberculosis (strain CDC 1551 / Oshkosh)) (UniProt P9WID4)", "Activity", "inactive"],
  ["OC[C@H]1O[C@@H](n2ccc3c(-c4cc[nH]c4)ncnc32)[C@H](O)[C@@H]1O", "Adenosine kinase (Mycobacterium tuberculosis (strain CDC 1551 / Oshkosh)) (UniProt P9WID4)", "Activity", "inactive"],
  ["Cc1ncnc2c1ccn2[C@@H]1O[C@H](CO)[C@@H](O)[C@H]1O", "Adenosine kinase (Mycobacterium tuberculosis (strain CDC 1551 / Oshkosh)) (UniProt P9WID4)", "Activity", "inactive"],
  ["OC[C@H]1O[C@@H](n2ccc3c(-c4ccsc4)ncnc32)[C@H](O)[C@@H]1O", "Adenosine kinase (Mycobacterium tuberculosis (strain CDC 1551 / Oshkosh)) (UniProt P9WID4)", "Activity", "inactive"],
  ["OCc1ncnc2c1ccn2[C@@H]1O[C@H](CO)[C@@H](O)[C@H]1O", "Adenosine kinase (Mycobacterium tuberculosis (strain CDC 1551 / Oshkosh)) (UniProt P9WID4)", "Activity", "inactive"]
]}

For the compound "OC[C@H]1O[C@@H](n2ccc3c(-c4cccc5c4Oc4ccccc4S5)ncnc32)[C@H](O)[C@@H]1O" , give its measured Activity value. inactive

For the compound "OC[C@H]1O[C@@H](n2ccc3c(-c4cc5ccccc5[nH]4)ncnc32)[C@H](O)[C@@H]1O" , give its measured Activity value. inactive

For the compound "OC[C@H]1O[C@@H](n2ccc3c(-c4ccoc4)ncnc32)[C@H](O)[C@@H]1O" , give its measured Activity value. inactive

For the compound "OC[C@H]1O[C@@H](n2ccc3c(-c4cccnc4)ncnc32)[C@H](O)[C@@H]1O" , give its measured Activity value. inactive

For the compound "OC[C@H]1O[C@@H](n2cc(Cl)c3c(-c4ccoc4)ncnc32)[C@H](O)[C@@H]1O" , give its measured Activity value. inactive
